Molecular target: T1, rat PAI-1 (rat, UniProt P20961 24-402)
T1 sequence: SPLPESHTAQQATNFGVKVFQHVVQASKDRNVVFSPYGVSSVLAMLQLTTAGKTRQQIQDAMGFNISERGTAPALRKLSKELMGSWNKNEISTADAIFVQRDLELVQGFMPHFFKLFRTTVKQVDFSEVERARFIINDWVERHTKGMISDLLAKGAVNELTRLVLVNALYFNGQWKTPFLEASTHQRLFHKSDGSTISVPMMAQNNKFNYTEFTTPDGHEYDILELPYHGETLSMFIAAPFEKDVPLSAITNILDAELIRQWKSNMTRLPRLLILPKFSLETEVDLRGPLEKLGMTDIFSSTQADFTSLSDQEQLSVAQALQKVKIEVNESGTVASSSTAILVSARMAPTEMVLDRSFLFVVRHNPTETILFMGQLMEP
Assay: cell-based or functional assay
recorded endpoint: IC50 chromogenic

binder	IC50 chromogenic
Antibody 01, IgG1, not germlined (antibody, V domains shown) VH: QVQLVQSGAEVKKPGSSVKVSCKASGGTFSSYAISWVRQAPGQGLEWMGGIIPIFGTANYAQKFQGRVTITADESTSTAYMELSSLRSEDTAVYYCAREKRQWLEGHFDYWGRGTLVTVSS VL: DIQMTQSPSTLSASVGDRVTITCRASEGIYRSLAWYQQKPGKAPKLLIYKASSLASGVPSRFSGSGSGTEFTLTISSLQPDDFATYYCQQYSNYPLTFGGGTKVEIK	99.3 nM
Antibody 13, scFv (scFv, V domains shown) VH: QVQLQQSGAEVKKPGSSVKVSCKASGGTFSSYAISWVRQAPGQGLEWMGGIIPTFGTANYAQKFQGRVTITADESTSTAYMELSDLRSEDTAVYYCAREKRQWLEGHFDYWGRGTPVTVSS VL: DIQMTQSPSFLSASIGDRVTITCRASEGIYHSLAWYQQKPGKAPKLLIYRASSLASGAPSRFSGSGSGTDFTLTISSLQPDDFATYYCQQYSNYPLTFGGGTKLEIK	140 nM

Pending binder:
For record Antibody 22, scFv (scFv, V domains shown) VH: QVQLQQSGAEVKKPGSSVKVSCKASGGTFSGYAISWVRQAPGQGLEWMGGIIPTFGTANYSQKFQGRVTITADESTSTAYMELSGLRSEDTAVYYCAREKRQWLEGHFDYWGRGTPVTVSS VL: DIQMTQSLSFLSASIGDRVTITCRASEGIYHALAWYQQKPGKAPKLLIYRASSLASGAPSRFSGSGSGTDFTLTISSLQPDDFATYYCQQYSNYPLTFGGGTKLEIK the listed IC50 chromogenic is 406 nM

Hello, the source for this data is patent US20120114652A1, in case you need it.
